src = paper PMC10812921

binding signal for assorted sequences
Molecular target: POU2 (OCT2 POU domain);BOB1 (OBF1, OCA-B) (human;human, UniProt P09086;Q16633 175-386;1-256, |)
Sequence 1: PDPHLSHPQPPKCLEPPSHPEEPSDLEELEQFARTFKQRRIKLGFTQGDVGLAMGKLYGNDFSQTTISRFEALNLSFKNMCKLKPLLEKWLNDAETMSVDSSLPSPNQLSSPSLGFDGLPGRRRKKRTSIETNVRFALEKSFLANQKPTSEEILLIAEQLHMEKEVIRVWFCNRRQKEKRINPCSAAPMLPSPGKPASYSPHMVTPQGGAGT
Sequence 2: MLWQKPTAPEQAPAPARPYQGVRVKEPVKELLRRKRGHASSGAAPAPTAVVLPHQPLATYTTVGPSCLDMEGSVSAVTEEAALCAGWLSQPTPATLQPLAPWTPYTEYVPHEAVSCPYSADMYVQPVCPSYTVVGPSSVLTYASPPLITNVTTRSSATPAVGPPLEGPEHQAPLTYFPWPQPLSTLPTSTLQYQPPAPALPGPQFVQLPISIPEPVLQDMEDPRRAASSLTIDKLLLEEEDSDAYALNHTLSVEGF
Experiment: EMSA-SELEX-seq; with BOB1 (ternary complex band); 20 mM Tris-HCl pH 7.6, 140 mM NaCl, 10% glycerol, 0.5 mM EDTA, 0.05% Triton X-100, 0.1 mg/mL BSA, 0.1 mg/mL poly(dI-dC), 5 mM DTT, room temperature, 20 min; high values mean tight binding
Conditions: protein: recombinant;recombinant; copies: 1;1; dsDNA, one strand shown
result type: binding signal

- AGGTGAAC: 0.0264 % of ANNNNAAN 8-mers
- ACGCAAAC: 0.0512 % of ANNNNAAN 8-mers
- ATTCTAAG: 0.0702 % of ANNNNAAN 8-mers
- ATAACAAC: 0.0347 % of ANNNNAAN 8-mers
- AGGTTAAT: 0.108 % of ANNNNAAN 8-mers
- AGCACAAC: 0.0124 % of ANNNNAAN 8-mers
- AGGGAAAG: 0.142 % of ANNNNAAN 8-mers
- AAAAGAAT: 0.0817 % of ANNNNAAN 8-mers
- AAATGAAA: 0.147 % of ANNNNAAN 8-mers
- AAATAAAC: 0.13 % of ANNNNAAN 8-mers
- ATAGAAAA: 0.0619 % of ANNNNAAN 8-mers
- AATGTAAA: 0.552 % of ANNNNAAN 8-mers
